Readings of % dead target cells, flow cytometry, 48h, K562-human GPC5 for the listed binders
STUDY TARGET: T1, human GPC5 overexpressed on K562 cells (human) (UniProt P78333)
T1 sequence (looked up): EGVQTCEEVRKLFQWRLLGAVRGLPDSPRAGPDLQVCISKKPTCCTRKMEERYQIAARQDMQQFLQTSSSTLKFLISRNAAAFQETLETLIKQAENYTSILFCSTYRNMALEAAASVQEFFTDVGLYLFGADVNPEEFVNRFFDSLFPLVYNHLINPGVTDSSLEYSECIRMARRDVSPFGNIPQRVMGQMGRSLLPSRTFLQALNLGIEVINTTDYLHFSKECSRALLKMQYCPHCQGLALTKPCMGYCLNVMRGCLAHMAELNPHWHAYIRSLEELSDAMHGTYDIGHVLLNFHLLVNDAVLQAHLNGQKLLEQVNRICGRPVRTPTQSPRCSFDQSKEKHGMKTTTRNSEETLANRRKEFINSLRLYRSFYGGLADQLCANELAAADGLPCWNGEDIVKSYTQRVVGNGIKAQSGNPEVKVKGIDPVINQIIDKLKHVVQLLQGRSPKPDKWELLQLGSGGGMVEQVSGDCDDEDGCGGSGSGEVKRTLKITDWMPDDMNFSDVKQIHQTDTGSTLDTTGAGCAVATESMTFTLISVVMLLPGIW
TEST METHOD NOTES: cell-based or functional assay
PROPERTY: % dead target cells, flow cytometry, 48h, K562-human GPC5 (%)

{"BINDER": "hmAb1-3 CAR (protein, part only; not given: hinge, transmembrane and signaling domains, part only) chain, part: QVQLVQSGAEVKKPGASVKVSCKTSGYTFTDYYIHWVRQAPGQGLEWMGEIYPGSGNTYYAQKFQGRVTMTADTSTSTAYMELSSLRSEDTAVYYCARGNDYDAWFVYWGQGTLVTVSSGSTSGSGKPGSGEGSTKGDIVMTQSPDSLAVSLGERATINCKSSQSLLNSGTRKNYLAWYQQKPGQPPKLLIYWASIRESGVPDRFSGSGSGTDFTLTISSLQAEDVAVYYCKQSYSLYTFGQGTKLEIK", "NUMERIC VALUE": 16.3}
{"BINDER": "hmAb1-2 CAR (protein, part only; not given: hinge, transmembrane and signaling domains, part only) chain, part: QVQLVQSGAEVKKPGASVKVSCKASGYTFTDYYIHWVRQAPGQGLEWMGEIYPGSGNTYYAQKFQGRVTMTRDTSTSTVYMELSSLRSEDTAVYYCARGNDYDAWFVYWGQGTLVTVSSGSTSGSGKPGSGEGSTKGDIVMTQSPDSLAVSLGERATINCKSSQSLLNSGTRKNYLAWYQQKPGQPPKLLIYWASIRESGVPDRFSGSGSGTDFTLTISSLQAEDVAVYYCKQSYSLYTFGQGTKLEIK", "NUMERIC VALUE": 18.2}
{"BINDER": "hmAb1-1 CAR (protein, part only; not given: hinge, transmembrane and signaling domains, part only) chain, part: QVQLVQSGAEVKKPGASVKVSCKTSGYTFTDYYIHWVRQAPGQGLEWMGEIYPGSGNTYYAQKFQGRVTMTADTSTSTAYMELSSLRSEDTAVYYCARGNDYDAWFVYWGQGTLVTVSSGSTSGSGKPGSGEGSTKGDIVMTQSPDSLAVSLGERVTMNCKSSQSLLNSGTRKNYLAWYQQKPGQPPKLLIYWASIRESGVPDRFSGSGSGTDFTLTISSVQAEDVAVYYCKQSYSLYTFGQGTKLEIK", "NUMERIC VALUE": 17.7}
{"BINDER": "hmAb1-4 CAR (protein, part only; not given: hinge, transmembrane and signaling domains, part only) chain, part: QVQLVQSGAEVKKPGASVKVSCKTSGYTFTDYYIHWVRQAPGQGLEWIGEIYPGSGNTYYAQKFQGRATLTADTSTSTAYMEFSSLRSEDTAVYYCARGNDYDAWFVYWGQGTLVTVSSGSTSGSGKPGSGEGSTKGDIVMTQSPDSLAVSLGERATINCKSSQSLLNSGTRKNYLAWYQQKPGQPPKLLIYWASIRESGVPDRFSGSGSGTDFTLTISSLQAEDVAVYYCKQSYSLYTFGQGTKLEIK", "NUMERIC VALUE": 16.4}
{"BINDER": "hmAb1-5 CAR (protein, part only; not given: hinge, transmembrane and signaling domains, part only) chain, part: QVQLVQSGAEVKKPGASVKVSCKTSGYTFTDYYIHWVRQAPGQGLEWIGEIYPGSGNTYYAQKFQGRATLTADTSTSTAYMEFSSLRSEDTAVYYCARGNDYDAWFVYWGQGTLVTVSSGSTSGSGKPGSGEGSTKGDIVMTQSPDSLAVSLGERVTMNCKSSQSLLNSGTRKNYLAWYQQKPGQPPKLLIYWASIRESGVPDRFSGSGSGTDFTLTISSVQAEDVAVYYCKQSYSLYTFGQGTKLEIK", "NUMERIC VALUE": 18.5}
